- tested on: Caspase 7 (Homo sapiens)
- Sequence (P55210 24-198 limits assumed): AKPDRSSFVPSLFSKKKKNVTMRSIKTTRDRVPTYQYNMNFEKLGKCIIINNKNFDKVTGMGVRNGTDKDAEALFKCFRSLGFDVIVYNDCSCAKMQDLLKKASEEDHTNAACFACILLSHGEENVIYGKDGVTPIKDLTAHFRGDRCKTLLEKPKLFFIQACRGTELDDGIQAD
- Sequence (P55210 207-303 limits assumed): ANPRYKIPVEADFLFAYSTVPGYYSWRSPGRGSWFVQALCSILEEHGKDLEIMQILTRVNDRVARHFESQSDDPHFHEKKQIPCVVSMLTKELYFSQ
attribute measured: IC50 (nM)

- Cc1ccc(N2C(=O)c3c(C)nc4ccc(S(=O)(=O)N5CCOCC5)cc4c3C2=O)cc1: 145

###

- tested on: Caspase 3 (Homo sapiens)
- Sequence (P42574 29-175 limits assumed): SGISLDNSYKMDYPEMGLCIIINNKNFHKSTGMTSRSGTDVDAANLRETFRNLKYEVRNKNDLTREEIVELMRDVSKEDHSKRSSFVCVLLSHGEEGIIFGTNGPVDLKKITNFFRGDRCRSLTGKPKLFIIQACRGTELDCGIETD
- Sequence (P42574 176-277 limits assumed): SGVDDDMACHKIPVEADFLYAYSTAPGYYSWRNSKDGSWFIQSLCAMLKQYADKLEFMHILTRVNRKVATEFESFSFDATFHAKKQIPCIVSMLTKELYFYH
attribute measured: inhibition

- Cc1cc(N2C(=O)c3c(C)nc4ccccc4c3C2=O)c2ccccc2n1: ~30%
- Cc1ccc(N2C(=O)c3c(C)nc4ccccc4c3C2=O)cc1: ~25%
- Cc1cc(N2C(=O)c3c(C)nc4ccc(F)cc4c3C2=O)c2ccccc2n1: ~30%
- Cc1nc2ccccc2c2c1C(=O)N(c1ccc(I)cc1)C2=O: ~25%
